I'd be grateful if you could share measured kinact/KI for these entries.
# systemTested: PAD3 (Homo sapiens, UniProt Q9ULW8)
# Construct: made in house
# Sequence (Q9ULW8 whole entry): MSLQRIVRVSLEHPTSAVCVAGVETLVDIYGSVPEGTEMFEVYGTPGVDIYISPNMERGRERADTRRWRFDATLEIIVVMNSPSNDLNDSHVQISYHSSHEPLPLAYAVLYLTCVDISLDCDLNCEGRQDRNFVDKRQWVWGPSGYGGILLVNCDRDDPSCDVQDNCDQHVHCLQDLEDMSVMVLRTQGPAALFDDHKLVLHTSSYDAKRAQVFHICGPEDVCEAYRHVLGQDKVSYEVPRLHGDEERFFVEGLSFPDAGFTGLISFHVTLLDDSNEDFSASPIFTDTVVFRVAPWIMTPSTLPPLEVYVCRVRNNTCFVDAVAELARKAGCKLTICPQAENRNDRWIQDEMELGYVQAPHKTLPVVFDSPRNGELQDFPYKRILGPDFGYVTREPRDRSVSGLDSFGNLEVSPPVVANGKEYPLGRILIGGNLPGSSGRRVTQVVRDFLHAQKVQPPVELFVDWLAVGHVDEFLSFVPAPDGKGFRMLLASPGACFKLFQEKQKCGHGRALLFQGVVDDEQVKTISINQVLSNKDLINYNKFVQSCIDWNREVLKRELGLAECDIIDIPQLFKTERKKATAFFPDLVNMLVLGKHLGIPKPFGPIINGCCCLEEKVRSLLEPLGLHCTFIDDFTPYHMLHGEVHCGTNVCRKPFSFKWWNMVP
# assayExplanation: Inactivation kinetics, PAD3
# Type: biochemical
# recordedConditions: a: single kobs determined
Express your answer in M⁻¹ s⁻¹, writing the number without its unit.

# molecule N=C(CCl)NCCC[C@H](NC(=O)c1cccc2c1C(=O)NC2)c1nc2ccccc2[nH]1 [Compound 7b] ; its kinact/KI = 467

# molecule CCN1Cc2cccc(C(=O)N[C@@H](CCCNC(=N)CCl)c3nc4c(OC)cccc4[nH]3)c2C1=O [Compound 8j] ; its kinact/KI = 313

# molecule CCn1c([C@H](CCCNC(=N)CCl)NC(=O)c2ccc(-c3ccccc3)cc2)nc2ccccc21 [Compound 5j] ; its kinact/KI = 284

# molecule CCn1c([C@H](CCCNC(=N)CF)NC(=O)c2ccccc2C(=O)O)nc2ccccc21 [Compound 6e] ; its kinact/KI = 29.2

# molecule COc1cccc2c1nc([C@H](CCCNC(=N)CF)NC(=O)c1ccc(-c3ccccc3)cc1)n2C [Compound 5m] ; its kinact/KI = 48.3

# molecule COc1cccc2c1nc([C@H](CCCNC(=N)CCl)NC(=O)c1cccc3c1C(=O)N(C(C)C)C3)n2C [Compound 8r] ; its kinact/KI = 241

# molecule CC(C)n1c([C@H](CCCNC(=N)CCl)NC(=O)c2cccc3c2C(=O)NC3)nc2ccccc21 [Compound 7h] ; its kinact/KI = 112

# molecule COc1cccc2c1nc([C@H](CCCNC(=N)CCl)NC(=O)c1cccc3c1C(=O)N(C)C3)n2C [8b′] ; its kinact/KI = 228

# molecule CCN1Cc2cccc(C(=O)N[C@@H](CCCNC(=N)CCl)c3nc4ccccc4n3C(C)C)c2C1=O [Compound 8h] ; its kinact/KI = 80

# molecule CCN1Cc2cccc(C(=O)N[C@@H](CCCNC(=N)CF)c3nc4c(OC)cccc4n3CC)c2C1=O [Compound 8u] ; its kinact/KI = 23.3

# molecule CCn1c([C@H](CCCNC(=N)CCl)NC(=O)c2cccc3c2C(=O)NC3)nc2cc(OC)ccc21 [Compound 7v] ; its kinact/KI = 214

# molecule CCn1c([C@H](CCCNC(=N)CF)NC(=O)c2cccc3c2C(=O)NC3)nc2c(OC)cccc21 [Compound 7q] ; its kinact/KI = 26.7

# molecule N=C(CCl)NCCC[C@H](NC(=O)c1ccc(-c2ccc(F)cc2)cc1)c1nc2ccccc2[nH]1 [Compound 5p] ; its kinact/KI = 176

# molecule COc1cccc2[nH]c([C@H](CCCNC(=N)CCl)NC(=O)c3cccc4c3C(=O)NC4)nc12 [Compound 7j] ; its kinact/KI = 502

# molecule Cn1c([C@H](CCCNC(=N)CCl)NC(=O)c2ccccc2C(=O)O)nc2ccccc21 [Compound 6d] ; its kinact/KI = 125

# molecule CCn1c([C@H](CCCNC(=N)CCl)NC(=O)c2ccccc2C(=O)O)nc2ccccc21 [Compound 6f] ; its kinact/KI = 183

# molecule CCOc1cccc2c1nc([C@H](CCCNC(=N)CCl)NC(=O)c1cccc3c1C(=O)NC3)n2C [Compound 7n] ; its kinact/KI = 108

# molecule COc1cccc2c1nc([C@H](CCCNC(=N)CF)NC(=O)c1cccc3c1C(=O)N(C1CC1)C3)n2C [Compound 8s] ; its kinact/KI = 20.3

# molecule COc1ccc2c(c1)nc([C@H](CCCNC(=N)CCl)NC(=O)c1cccc3c1C(=O)NC3)n2C [Compound 7p] ; its kinact/KI = 218

# molecule N=C(CF)NCCC[C@H](NC(=O)c1ccc(-c2ccccc2)cc1)c1nc2cc(F)c(F)cc2[nH]1 [Compound 5q] ; its kinact/KI = 25.5

# molecule COc1ccc2[nH]c([C@H](CCCNC(=N)CCl)NC(=O)c3cccc4c3C(=O)NC4)nc2c1 [Compound 7t] ; its kinact/KI = 291

# molecule N=C(CCl)NCCC[C@H](NC(=O)c1ccc2ccccc2c1)c1nc2ccccc2[nH]1 [Compound 5d] ; its kinact/KI = 165
